- Organism: Homo sapiens
- assay-remarks: To identify inhibition of the IFN signalling (Jak-Stat) pathway via expression of an eGFP reporter gene under the control of an IFN-stimulated response element (ISRE) containing MxA promoter.
- Assay type: functional
- Parameters: scale not given: direction of the effect not stated beside the values
- protocol-conditions: 30 µM
readout-type: Percent Effect

Query: Look up Percent Effect for this compound: CCN(CC1CCOC1)C(=O)c1cccnc1N1CCOCC1 (configuration not stated)
Response: -1.93%

Query: Entry to check: Cn1ccc(-c2cc(C(=O)N3CCOCC3)c3ccccn23)n1
Response: 35.5%

Query: Entry to check: O=C(CNCCn1cccn1)NCC1(c2ccccc2)CC1
Response: 7.94%

Query: Entry to check: CCOC(=O)CCCNC(=O)CN1CCN(c2ncccn2)CC1
Response: 2.75%

Query: Entry to check: Cc1ccc2c(c1)C1(CC2)CCN(c2nncs2)CC1
Response: 20.4%

Query: Entry to check: Cc1cc(S(=O)(=O)NCc2cccc(C(=O)N3CCCC3)c2)c(C)s1
Response: 15.2%

Query: Entry to check: Cc1nn(CC(=O)N2CCN(c3ccncc3)CC2)c(C)c1Cl
Response: 16.3%

Query: Entry to check: COC(=O)c1cc(OCC2CCC2)cc(C(=O)N[C@@H]2CNCC[C@H]2O)c1
Response: 36%

Query: Entry to check: CN(C)CC1CN(C(=O)NCc2ccccc2)Cc2nccn2C1 (configuration not stated)
Response: 3.73%

Query: Entry to check: CCN(C1CCS(=O)(=O)C1)S(=O)(=O)c1cccc2cc(C)cnc12 (configuration not stated)
Response: 14.3%

Query: Entry to check: COc1ccccc1N1CCC(CNCc2cccc(O)c2)C1 (configuration not stated)
Response: 20.2%

Query: Entry to check: O=C(c1ccc(Br)o1)N1CCCC(n2cncn2)C1 (configuration not stated)
Response: 7.55%

====

- Species: Homo sapiens
- assay-remarks: To identify inhibition of the IFN signalling (Jak-Stat) pathway via expression of an eGFP reporter gene under the control of an IFN-stimulated response element (ISRE) containing MxA promoter.
- Format: functional
- Design: scale not given: direction of the effect not stated beside the values
- protocol-conditions: 30 µM
readout-type: Percent Effect (%)
Give the value, in units of %, as a plain number.

Query: Look up Percent Effect for this compound: CN(C)Cc1ccnc(C2CCCN2Cc2cc[nH]n2)n1 (configuration not stated)
Response: -0.845

Query: Entry to check: CC(=O)c1cn(CCC(=O)NCCC(=O)O)c2ccccc12
Response: 0.418

Query: Entry to check: COc1cccc(N2CCN(C(=O)C(O)c3cccc(Cl)c3)CC2=O)c1 (configuration not stated)
Response: 22.3

Query: Entry to check: Cc1cccc(N2CCC(NC(=O)CCCc3cccs3)CC2)n1
Response: 4.54

Query: Entry to check: O=C1CCc2cc(C(=O)NCc3ccc(-n4cncn4)nc3)ccc2N1
Response: 10.4

Query: Entry to check: CSCCNC(=O)c1ccc(OC2CCN(CC(C)(C)C)CC2)c(Cl)c1
Response: -3.54

Query: Entry to check: O=C(c1csc(Br)c1)N1CCCC(n2ccnc2)C1 (configuration not stated)
Response: -8.54

Query: Entry to check: Cc1cc(=O)n(CC(=O)NCCC(C)C)c(-c2cccc(Cl)c2)n1
Response: 2.45

Query: Entry to check: CN1CCCCC1c1ncc2c(n1)CCN(Cc1ccccc1Cl)C2 (configuration not stated)
Response: -3.83

Query: Entry to check: Cc1ccccc1C(=O)CN1C(=O)c2ccccc2CS1(=O)=O
Response: 18.7

Query: Entry to check: CN(C)C(=O)COC1COC2(CCN(S(C)(=O)=O)CC2)C1 (configuration not stated)
Response: -9.56

Query: Entry to check: c1ccc(-c2ccc3nc(C4CCN(CC5CC5)CC4)nn3c2)cc1
Response: -16.5

Query: Entry to check: O=C(c1ccc(Cl)cc1)N1CCCn2nnc(Cn3cccn3)c2C1
Response: 8.78

Query: Entry to check: c1cncc(COCC2CN(Cc3ccco3)Cc3ccnn3C2)c1 (configuration not stated)
Response: 9.51

Query: Entry to check: Cc1nccc(CN2CCC(c3nnsc3S(C)(=O)=O)CC2)n1
Response: 16.8

Query: Entry to check: COCCN(C)CCN1CC2(CCN(C(=O)C3CCOC3)CC2)OC1=O (configuration not stated)
Response: 6.21

Query: Entry to check: CCC(=O)N1CCc2[nH]cnc2C12CCN(C(=O)c1snnc1C)CC2
Response: 23.3

Query: Entry to check: COCCOCC(=O)Nc1ccc(C)cc1F
Response: -16.7

Query: Entry to check: CC(C)NC(=O)c1sccc1N(C)S(=O)(=O)c1ccc(Cl)cc1
Response: 22.6

Query: Entry to check: Cc1cc(F)ccc1CNCCn1cccn1
Response: 1.75

Query: Entry to check: COCCN(C)C[C@@H]1CN(C(=O)c2cccc(C(F)(F)F)c2)C[C@@H]1CO
Response: -3.37

Query: Entry to check: CC(C)C(Sc1nnnn1-c1ccccc1)C(=O)NCc1cccnc1 (configuration not stated)
Response: 17

Query: Entry to check: CN1CCN(C(=O)[C@@H]2CCO[C@@H]3CCN(c4ncccn4)C[C@@H]32)CC1
Response: -18.8

Query: Entry to check: CN(CCOc1cccc(CN)c1)C1CCOCC1
Response: -5.29

Query: Entry to check: Cc1noc(C(C)N2CCN(CCCN3CCCC3=O)CC2)n1 (configuration not stated)
Response: 9.12

Query: Entry to check: COc1cc(C(=O)N(Cc2ccco2)C2CC2)cc2c1OCCO2
Response: 6.99

Query: Entry to check: CC(C)n1ncc2c1NC(=O)CC21C(=O)Nc2c(Cl)cccc21 (configuration not stated)
Response: 34

Query: Entry to check: O=C(c1ccc(F)c(Cl)c1)N1C[C@@H]2CC[C@H](C1)N(Cc1ccccc1)C2
Response: -10.1

Query: Entry to check: CC(c1nc(C2CC2)no1)N1CCN(Cc2ccccc2F)CC1 (configuration not stated)
Response: -11.4

Query: Entry to check: O=C1NCCN1C1CCCN(Cc2nnc(-c3ccc(F)cc3)o2)C1 (configuration not stated)
Response: -7.13

Query: Entry to check: Cc1nn(C)c2c(N3CCN(C(=O)c4ccccc4)CC3)ncnc12
Response: 12.3

Query: Entry to check: CC(=O)N1CCCN(c2nccc(-c3cn(C)nc3C)n2)CC1
Response: -1.59

Query: Entry to check: Cc1cccc(-n2cc(C(=O)N3CCCC(n4ccnc4)C3)nn2)c1 (configuration not stated)
Response: 21.7

Query: Entry to check: CN(Cc1ccc(C#N)cc1)Cc1noc(C(C)(C)C)n1
Response: 8.86

Query: Entry to check: O=C1CC(c2ccncc2)c2c(c(C(=O)O)cn2-c2ccc(F)cc2)N1 (configuration not stated)
Response: 4.82

Query: Entry to check: CC(C)N(C)CC(=O)NC1CCc2nccn2C1 (configuration not stated)
Response: 31.6

Query: Entry to check: CC(C)Oc1cc(N2C[C@@H](C)O[C@@H](C)C2)nc(N)n1
Response: 3.78

Query: Entry to check: O=C([C@@H]1COC[C@H]2CN(C3CCOCC3)C[C@H]21)N1CCCCO1
Response: 7.44

Query: Entry to check: CCc1nc(CN2CCCN(C(=O)C(C)n3ccnc3)CC2)cs1 (configuration not stated)
Response: -7.97

Query: Entry to check: CCCN(C)C(=O)c1ccc2c(c1)[nH]c(=O)n2CCOCC
Response: -3.55

Query: Entry to check: CC(C)c1cc(NC(=O)CN2CCCC2Cn2cccn2)on1 (configuration not stated)
Response: 15.3

Query: Entry to check: O=C(NCc1ccccn1)[C@@H]1COC[C@H]2CN(C3CCOCC3)C[C@H]21
Response: 11.2

Query: Entry to check: CCCC(C)CN1CCC(n2cc(CCCO)nn2)CC1 (configuration not stated)
Response: -7.18

Query: Entry to check: c1nc2c(c(C3CC3)n1)CCN(Cc1ccc3c(c1)OCO3)CC2
Response: 8.17

Query: Entry to check: O=C(CCc1nc2cccnc2[nH]1)Nc1cccnc1
Response: -1.85

Query: Entry to check: CCn1c(N)nc2cc(C(=O)NCCc3ccccc3C)cnc21
Response: 20.2

Query: Entry to check: COCCN1CCN(C(C)C(=O)Nc2ccnn2C(C)C)CC1 (configuration not stated)
Response: -1.59

====

- Tested on: Trypanosoma cruzi
- assay-remarks: Trypanosoma cruzi phosphomannomutase and mannose-1-phosphate guanylyltransferase assay
- Type: functional
- Parameters: scale not given: direction of the effect not stated beside the values
- protocol-conditions: 10 µM
Assignment: determine reported Percent Effect for the given compounds.
Give the value, in units of %, as a plain number.

Query: Look up Percent Effect for this compound: COC(=O)N1CCCC(C(=O)NCc2cc3cccc(OC)c3o2)C1 (stereo unspecified)
Response: -2.36

Query: Entry to check: CCN(Cc1nc2c(cnn2C)c(=O)[nH]1)c1ccc(OC)c(OC)c1
Response: 0.513

Query: Entry to check: CN(C)c1cc2c(nn1)CCN(C(=O)C1Cc3ccccc3S1)C2 (stereo unspecified)
Response: 5.76

Query: Entry to check: COc1ncccc1NC(=O)NC1CCOc2ccccc21 (stereo unspecified)
Response: 5.29

Query: Entry to check: CCc1nc(C)c(C(=O)NCCNc2ncccn2)s1
Response: -2.52

Query: Entry to check: CN(Cc1cc[nH]n1)C(=O)c1cccc(CCC(C)(C)O)c1
Response: -5.16

Query: Entry to check: CCCc1n[nH]c(C2CN(Cc3nnc(C4CC4)o3)CCO2)n1 (stereo unspecified)
Response: 4.25

Query: Entry to check: COCc1cccc(NC(C)C(=O)N(C)Cc2ccccc2)c1 (stereo unspecified)
Response: 7.92

Query: Entry to check: Cc1cnn(CC2CCCN2C(=O)c2ccc3cc[nH]c3c2)c1 (stereo unspecified)
Response: -1.33

Query: Entry to check: COCCN(Cc1ccc(F)cc1Cl)C(=O)c1ccc(=O)[nH]n1
Response: 4.37

Query: Entry to check: CCN(CC)Cc1cn2c(n1)CN(C(=O)c1cc(C)on1)CC2
Response: -4.01
